MEASURE_NAME: logP
Returns: the value as a bare number; no unit string appended.

Recorded logP, per entry:
{"QUERY_SMILES": "CCCCOC(=O)CCCc1cc(CN2CCCC2)c(O)c(CN2CCCC2)c1", "logP": 1.11}
{"QUERY_SMILES": "CCCCOC(=O)CCc1cc(CN2CCCC2)c(O)c(CN2CCCC2)c1", "logP": 0.3}
{"QUERY_SMILES": "CCOC(=O)Cc1cc(CN2CCCC2)c(O)c(CN2CCCC2)c1", "logP": -0.74}
{"QUERY_SMILES": "CC(C)OC(=O)Cc1cc(CN2CCCC2)c(O)c(CN2CCCC2)c1", "logP": -0.41}
{"QUERY_SMILES": "CC(C)OC(=O)CCc1cc(CN2CCCC2)c(O)c(CN2CCCC2)c1", "logP": -0.21}

Query logP for CCCOC(=O)Cc1cc(CN2CCCC2)c(O)c(CN2CCCC2)c1
-0.37

Query logP for CC(C)COC(=O)Cc1cc(CN2CCCC2)c(O)c(CN2CCCC2)c1
0.1
